molecular target: PI3K (Homo sapiens, UniProt P42336); construct: PI3 Kinase α IC50; other: PI3 Kinase α; other: PI3 Kinase α isoform, fluorescence polarization; assay: Fluorescence polarization assay for PI3K; format: biochemical; details: PI3 Kinase α; read-out: PI3 Kinase α IC50
Sequence (P42336 whole entry, canonical isoform): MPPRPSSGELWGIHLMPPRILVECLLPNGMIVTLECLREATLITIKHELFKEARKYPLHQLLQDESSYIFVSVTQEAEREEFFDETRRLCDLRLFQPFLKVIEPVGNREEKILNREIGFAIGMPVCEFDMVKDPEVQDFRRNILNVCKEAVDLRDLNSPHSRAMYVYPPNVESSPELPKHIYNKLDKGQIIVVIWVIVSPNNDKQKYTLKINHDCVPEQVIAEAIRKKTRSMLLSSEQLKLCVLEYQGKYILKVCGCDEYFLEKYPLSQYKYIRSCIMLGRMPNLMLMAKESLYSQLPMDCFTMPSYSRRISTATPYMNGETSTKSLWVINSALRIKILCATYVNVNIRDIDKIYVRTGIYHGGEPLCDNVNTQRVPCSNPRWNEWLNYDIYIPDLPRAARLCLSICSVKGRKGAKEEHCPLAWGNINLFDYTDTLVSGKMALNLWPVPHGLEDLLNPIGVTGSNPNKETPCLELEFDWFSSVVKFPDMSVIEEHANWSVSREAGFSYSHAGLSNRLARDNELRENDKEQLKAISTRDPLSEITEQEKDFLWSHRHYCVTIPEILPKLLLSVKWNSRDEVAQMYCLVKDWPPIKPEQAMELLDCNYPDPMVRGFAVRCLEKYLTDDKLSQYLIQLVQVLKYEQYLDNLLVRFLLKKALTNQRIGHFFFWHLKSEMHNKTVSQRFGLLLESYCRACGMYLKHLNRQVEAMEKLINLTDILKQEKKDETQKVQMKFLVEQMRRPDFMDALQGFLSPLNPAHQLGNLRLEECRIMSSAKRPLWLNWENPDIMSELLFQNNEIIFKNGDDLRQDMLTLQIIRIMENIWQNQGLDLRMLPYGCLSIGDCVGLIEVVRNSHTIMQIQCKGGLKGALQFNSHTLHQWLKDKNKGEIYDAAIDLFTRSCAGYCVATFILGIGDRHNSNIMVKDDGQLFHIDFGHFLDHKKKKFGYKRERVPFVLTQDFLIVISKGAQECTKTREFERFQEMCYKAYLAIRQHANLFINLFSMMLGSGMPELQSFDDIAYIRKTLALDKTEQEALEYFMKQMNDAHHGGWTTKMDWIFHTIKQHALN
Flag rule - IC50 less than 200 nM flags Fulfilled; the remaining entries get Not fulfilled.

Input O=C(Nc1ccncc1)Nc1ccc(-c2nc(N3CC4CCC(C3)O4)c3cnn(Cc4ccccc4)c3n2)cc1 ; condition: IC50 strictly below 200 nM. Does it hold? Not fulfilled

Bench note: check whether CCn1ncc2c(N3CC4CCC(C3)O4)nc(-c3ccc(NC(=O)NCC4CCN(C)CC4)cc3)nc21 shows IC50 below 200 nM Not fulfilled

Please state whether IC50 is below 200 nM for CN(C)CCn1ncc2c(N3CC4CCC(C3)O4)nc(-c3ccc(NC(=O)Nc4ccc(N5CCN(C)CC5)cc4)cc3)nc21 Fulfilled

Would you kindly verify if IC50 of O=C(Nc1ccccc1)Nc1ccc(-c2nc(N3CC4CCC(C3)O4)c3cnn(CCO)c3n2)cc1 is strictly less than 200 nM? Fulfilled

Numbers sourced from patent US8129371B2.
